Values were extracted from patent US5436246A.

molecular target: 5-HT1D receptors (Canis lupus familiaris, UniProt P79250); parameters: species or system dog (canine); settings: negative log molar concentration of antagonist producing 2 fold shift in ED50 of 5-HT dose response curves; read-out: pA2 (blocking of 5-HT1-like-mediated contraction in canine saphenous vein) (converted)
Sequence (P79250 whole entry): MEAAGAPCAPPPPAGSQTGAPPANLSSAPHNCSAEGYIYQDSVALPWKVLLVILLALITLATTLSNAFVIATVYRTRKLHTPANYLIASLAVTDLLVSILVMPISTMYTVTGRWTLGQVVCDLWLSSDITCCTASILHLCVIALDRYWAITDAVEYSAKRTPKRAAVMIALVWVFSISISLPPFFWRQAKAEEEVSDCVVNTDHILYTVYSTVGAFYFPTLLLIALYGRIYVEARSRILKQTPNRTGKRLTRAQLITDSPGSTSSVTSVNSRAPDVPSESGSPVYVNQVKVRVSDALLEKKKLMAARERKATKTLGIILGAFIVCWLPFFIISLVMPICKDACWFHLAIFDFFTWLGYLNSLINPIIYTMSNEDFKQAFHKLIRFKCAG
Structures can show the parent of a compound that is named as a salt.
Recorded endpoint: Kb (nM)
Quick reminder: number only, in nM, skip the unit.

Record lookup: for 5-HT1D receptors (Canis lupus familiaris, UniProt P79250), what Kb belongs to CCOC(=O)c1cc2c(N3CCN(CCc4ccc(Cl)cc4)CC3)cccc2s1 [Example 18, monohydrochloride] ?
309

Record: O=C(NCc1ccccc1)c1cc2c(N3CCN(CCc4ccccc4)CC3)cccc2s1 [Example 13, monohydrochloride]
1.74

Follow-up item: CC(C)(O)c1cc2c(N3CCN(CCc4ccccc4)CC3)cccc2s1 [Example 41, hydrochloride hemihydrate]
36.3

What do we get for CON(C)C(=O)c1cc2c(N3CCN(CCc4ccccc4)CC3)cccc2s1 [Example 40, hydrochloride] ?
3.16

Follow-up entry: CCCN1CCN(c2cccc3sc(C(=O)OCC)cc23)CC1 [Example 34, hydrochloride]
166

Now this one: CN(C)C(=O)c1cc2c(N3CCN(CCc4ccccc4)CC3)cccc2s1 [Example 11, monohydrochloride]
0.977

Same again, this time with CNC(=O)c1cc2c(N3CCN(CCc4ccccc4)CC3)cccc2s1 [Example 10, monohydrochloride]
0.0251

Please give the result for CCOC(=O)c1cc2c(N3CCN(CCc4ccc(F)cc4)CC3)cccc2s1 [Example 22, monohydrochloride] too.
29.5

Repeat with NC(=O)c1cc2c(N3CCN(CCCc4ccccc4)CC3)cccc2s1 [Example 17, monohydrochloride]
16.6

// next record O=C(c1cc2c(N3CCN(CCc4ccccc4)CC3)cccc2s1)N1CCCCC1 [Example 56, hydrochloride]
112

Same question, O=C(Nc1ccccc1)c1cc2c(N3CCN(CCc4ccccc4)CC3)cccc2s1 [Example 12, monohydrochloride] this time
18.2

What would you report for COCc1cc2c(N3CCN(CCc4ccccc4)CC3)cccc2s1 [Example 37, hydrochloride] ?
9.33

Another compound: O=C(c1cc2c(N3CCN(CCc4ccccc4)CC3)cccc2s1)N1CCCC1 [Example 57, hydrochloride]
4.27

----------
target: UniProt P19327; experiment: 5HT1A receptor binding affinity (procedure of Gozlan et al.); settings: average of multiple determinations where number in parentheses is given; read-out: IC50 (5HT1A Binding Affinity)
pIC50: −log10 of the molar value. Structures can show the parent of a compound that is named as a salt.
Binary classification by pIC50, with 7 as an inclusive lower bound for 1.0; all other cases are 0.0.

Determine whether this compound has pIC50 no lower than 7: CCCN1CCN(c2cccc3sc(CO)cc23)CC1 [Example 35, hydrochloride]
1.0

Input CCOC(=O)c1cc2c(N3CCN(CCc4ccccc4)CC3)cccc2s1 [Example 6, monohydrochloride]
1.0

Also need N#Cc1cc2c(N3CCN(Cc4ccccc4)CC3)cccc2s1 [Example 3, monohydrochloride] , thanks.
0.0

Field entry: NC(=O)c1cc2c(N3CCN(Cc4ccccc4)CC3)cccc2s1 [Example 4, monohydrochloride]
1.0

Let us now turn to CCOC(=O)c1cc2c(N3CCN(CCCc4ccccc4)CC3)cccc2s1 [Example 14]
0.0

Input OCc1cc2c(N3CCN(Cc4ccccc4)CC3)cccc2s1 [Example 2, monohydrochloride]
1.0

Note, next up: CN(C)C(=O)c1cc2c(N3CCN(CCc4ccccc4)CC3)cccc2s1 [Example 11, monohydrochloride]
1.0

----------
target: 5-HT1D receptors (Canis lupus familiaris, UniProt P79250); parameters: species or system dog (canine); conditions: dog, read-out: intrinsic (agonist) activity, saphenous vein preparation
Where a name gives a salt, the structure may show the parent alone.
Recorded endpoint: Emax (%)
Respond with the bare value in %.

Form: Entry = N#Cc1cc2c(N3CCN(CCc4ccc(F)cc4)CC3)cccc2s1 [Example 24, monohydrochloride] | System = 5-HT1D receptors (Canis lupus familiaris, UniProt P79250) | Emax = ____
9

Next compound up: COCc1cc2c(N3CCN(CCc4ccccc4)CC3)cccc2s1 [Example 37, hydrochloride]
0

Then what about the compound COCc1cc2c(N3CCN(CCc4ccc(F)cc4)CC3)cccc2s1 [Example 46, hydrate] ?
5

Follow-up entry: CNC(=O)c1cc2c(N3CCN(CCc4ccccc4)CC3)cccc2s1 [Example 10, monohydrochloride]
25

----------
Molecular target: 5HT1A receptor (Rattus norvegicus, UniProt P19327)
Sequence (P19327 1-422): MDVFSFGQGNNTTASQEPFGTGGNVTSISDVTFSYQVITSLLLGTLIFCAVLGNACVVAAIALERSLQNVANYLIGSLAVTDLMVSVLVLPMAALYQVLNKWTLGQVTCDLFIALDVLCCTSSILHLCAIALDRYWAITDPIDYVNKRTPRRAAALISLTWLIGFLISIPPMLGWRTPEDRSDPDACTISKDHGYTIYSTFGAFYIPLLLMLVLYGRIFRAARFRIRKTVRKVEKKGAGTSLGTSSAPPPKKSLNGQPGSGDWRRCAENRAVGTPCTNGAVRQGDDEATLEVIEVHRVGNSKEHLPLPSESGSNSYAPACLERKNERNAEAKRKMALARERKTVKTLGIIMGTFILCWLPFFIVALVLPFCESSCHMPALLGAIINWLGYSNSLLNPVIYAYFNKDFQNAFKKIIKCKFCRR
Experiment: 5HT1A receptor binding affinity (procedure of Gozlan et al.)
Structures can show the parent of a compound that is named as a salt.
Recorded endpoint: IC50 (nM)
Give the value in nM but do not write nM after it.

// IC50 lookup, key: Cc1ccc(CCN2CCN(c3cccc4sc(C(N)=O)cc34)CC2)cc1 [Example 29, monohydrochloride]
1

And then CNC(=O)c1cc2c(N3CCN(CCc4ccccc4)CC3)cccc2s1 [Example 10, monohydrochloride] , what is it?
1

Also check Cl.OCc1cc2c(N3CCN(CCc4ccccc4)CC3)cccc2s1 [Example 7, monohydrochloride]
0.6
